Source: patent US20230233569A1

# tested-on: KRAS Q61H (Homo sapiens, UniProt P01116+P62937, Q61H)
# Sequence (P01116 1-169 isoform P01116-2 Q61H limits assumed): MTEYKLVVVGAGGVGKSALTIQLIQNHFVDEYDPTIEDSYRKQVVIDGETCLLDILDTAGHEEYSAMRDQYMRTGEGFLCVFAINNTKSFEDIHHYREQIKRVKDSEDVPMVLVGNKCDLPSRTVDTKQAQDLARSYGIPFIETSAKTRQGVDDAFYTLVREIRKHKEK
# Sequence (P62937 whole entry): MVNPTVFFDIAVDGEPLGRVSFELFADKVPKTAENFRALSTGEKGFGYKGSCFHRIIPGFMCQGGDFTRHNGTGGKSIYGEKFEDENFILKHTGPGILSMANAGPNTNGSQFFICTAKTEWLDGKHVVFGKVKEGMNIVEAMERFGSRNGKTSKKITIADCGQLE
# assay-procedure: Ras-Raf disruption / FRET / MOA assay (BRAF RBD)
# Assay type: biochemical
# Text: Disruption of […] Ras-binding Domain (BRAF^RBD) Interaction with K-Ras by Compounds of the Invention (also Called a FRET Assay or an MOA Assay) Note—The following protocol describes a procedure for monitoring disruption of K-Ras G12C (GMP-PNP) binding to BRAF^RBD by a compound of the invention. This protocol may also be executed substituting other Ras proteins or nucleotides, such as K-Ras G12D and K-Ras G13D. […]
I'd be grateful if you could share measured IC50 for these entries.

Which IC50 is reported for this compound? CCn1c(-c2cccnc2[C@H](C)OC)c2c3cc(ccc31)-c1cc(O)cc(c1)C[C@H](NC(=O)[C@H](C(C)C)N(C)C(=O)CN(C)C(=O)[C@H]1CN1CCCOC(C)=O)C(=O)N1CCC[C@H](N1)C(=O)OCC(C)(C)C2 (stereo partly drawn) [Example 266]
10 to 100 nM

Which IC50 is reported for this compound? CCn1c(-c2cccnc2[C@H](C)OC)c2c3cc(ccc31)-c1cc(O)cc(c1)C[C@H](NC(=O)[C@H](C(C)C)N(C)C(=O)CN(C)C(=O)[C@@]1(C)CN1)C(=O)N1CCC[C@H](N1)C(=O)OCC(C)(C)C2 [Example 256]
10 to 100 nM

Item CCn1c(-c2cccnc2[C@H](C)OC)c2c3cc(ccc31)-c1cc(O)cc(c1)C[C@H](NC(=O)[C@H](C(C)C)N(C)C(=O)CN(C)C(=O)[C@H]1CN1CC1COC1)C(=O)N1CCC[C@H](N1)C(=O)OCC(C)(C)C2 (stereo partly drawn) [Example 277] has what recorded IC50?
10 to 100 nM

----------
# tested-on: KRAS G12V (Homo sapiens, UniProt P01116+P62937, G12V)
# Sequence (P01116 1-169 isoform P01116-2 G12V limits assumed, one chain of several): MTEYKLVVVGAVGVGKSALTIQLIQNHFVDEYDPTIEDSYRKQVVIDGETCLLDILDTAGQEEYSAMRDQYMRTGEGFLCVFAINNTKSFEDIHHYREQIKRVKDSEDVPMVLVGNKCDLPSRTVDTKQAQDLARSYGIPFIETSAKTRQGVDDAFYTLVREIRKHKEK
# assay-procedure: Ras-Raf disruption / FRET / MOA assay (BRAF RBD)
# Assay type: biochemical
# assay-conditions: Ras-Raf disruption, with Cyclophilin A; read-out: KRAS G12V FRET data IC50
Assignment: determine reported IC50 for the given molecules.

# lookup: IC50 of CCn1c(-c2cccnc2[C@H](C)OC)c2c3cc(ccc31)-c1cc(O)cc(c1)C[C@H](NC(=O)[C@H](C(C)C)N(C)C(=O)[C@H]1CCCN(C(=O)[C@@H]3CN3)C1)C(=O)N1CCC[C@H](N1)C(=O)OCC(C)(C)C2
100 to 1000 nM

For the molecule shown here, CCn1c(-c2cccnc2[C@H](C)OC)c2c3cc(ccc31)-c1cc(O)cc(c1)C[C@H](NC(=O)[C@H](C(C)C)N(C)C(=O)c1ncc(NC(=O)[C@@H]3CN3)n1C)C(=O)N1CCC[C@H](N1)C(=O)OCC(C)(C)C2 , give the reported IC50.
10 to 100 nM

State the recorded IC50 for this entry: CCn1c(-c2cccnc2[C@H](C)OC)c2c3cc(ccc31)-c1cc(O)cc(c1)C[C@H](NC(=O)[C@H](C(C)C)N(C)C(=O)N1CC[C@@H](N(C)C(=O)[C@@H]3CN3)C1)C(=O)N1CCC[C@H](N1)C(=O)OCC(C)(C)C2 (atropisomer, axis not shown)
100 to 1000 nM

IC50 for CCn1c(-c2cccnc2[C@H](C)OC)c2c3cc(ccc31)-c1cc(O)cc(c1)C[C@H](NC(=O)[C@H](C(C)C)N(C)C(=O)[C@@H]1CCN(C(=O)[C@H]3CN3)C1)C(=O)N1CCC[C@H](N1)C(=O)OCC(C)(C)C2 (atropisomer, axis not shown) ?
10 to 100 nM
